- Target Of Assay: human CD28 (human, UniProt P10747 19-220, On cells CD28 is a disulfide linked homodimer and a glycoprotein; one copy of the chain is given.)
- Sequence (P10747 19-220 limits assumed): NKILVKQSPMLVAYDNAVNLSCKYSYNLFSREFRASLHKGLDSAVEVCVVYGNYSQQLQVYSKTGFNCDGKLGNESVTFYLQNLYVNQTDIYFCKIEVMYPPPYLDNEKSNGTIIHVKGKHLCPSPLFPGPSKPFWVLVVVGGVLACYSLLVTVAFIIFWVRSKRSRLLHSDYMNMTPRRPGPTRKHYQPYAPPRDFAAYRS
- Measurement Notes: cell-based or functional assay
// Expansion Index (with anti-CD3 UCHT1) lookup, one value per entry
The response must contain the number and no unit.

Known results for binders:
exemplary anti-CD28 antibody AB5 (antibody, V domains shown, Mouse hybridoma monoclonal antibody; Conjugated to PE in the staining assays; also called antibody 5; clone 5) VH: EVQLQQSGPELEKPGASVKMSCKASGYSFTDYNMNWVKQSNGKSLEWIGIIDPYYGATTYNQRFKGKATLTVDKSSSTAYMQLKSLTSEDSAVYYCARFGFYGAMDYWGQGISVTVSS VL: DVVVTQTPLSLPVSFGDQVSISCRSSQSLANSFGNTYLSWYLHKPGQSPQLLIYGISNRFSGVPDRFSGSGSGTDFTLKISTIKPEDLGVYYCLQGTHQPFTFGSGTTLELK | 5.39
exemplary anti-CD28 antibody AB7 (antibody, V domains shown, Mouse hybridoma monoclonal antibody; Conjugated to PE in the staining assays; also called antibody 7; clone 7) VH: KVQLQQSGAGLVKPGASVKLSCKASGYTFSDYIINWVKQRSGQGLEWIGWFYPGSGSINYNEKFKDKATLTADKSSSTVYMDLSRLTSEDSAVYFCARREDRGGYDAFDYWGQGTTLTVSS VL: DIQMTQSPASLSVSVGETVTITCRTSENIYSNLAWYQQKQGKSPQLLVYAATKLADGVPSRFSGSGSGTQYSLRINSLQPEDFGSYYCQHFWGTPWTFGGGTKLEIK | 4.82

We now examine a further binder.
get_value(item= exemplary anti-CD28 antibody AB8 (antibody, V domains shown, Mouse hybridoma monoclonal antibody; Conjugated to PE in the staining assays; also called antibody 8; clone 8) VH: EVKLVESGGGLVQPGGSLKLSCAASGFTFSSYTMSWVRQTPEKRLEWVAYISNGGGTTYYPDTVKGRFTISRDNAKNTLYLQMSSLKSEDTAVYYCARHRPYDYDVLDYWGQGTTLTVSS VL: DIVMTQSQKFMSTSVGDRVSITCKASQIVGTDVAWYQQKPGQSPKILIFSASNRYTGVPDRFTGSGSGTDFTLTISNMQSEDLADYFCHQYSRYPYTFGGGTKLEIK , readout=Expansion Index (with anti-CD3 UCHT1)) returns 3.51
